Attribution: patent US8097733B2

Assay System: recombinant human 5-LOX (Homo sapiens)
Sequence (P09917 whole entry): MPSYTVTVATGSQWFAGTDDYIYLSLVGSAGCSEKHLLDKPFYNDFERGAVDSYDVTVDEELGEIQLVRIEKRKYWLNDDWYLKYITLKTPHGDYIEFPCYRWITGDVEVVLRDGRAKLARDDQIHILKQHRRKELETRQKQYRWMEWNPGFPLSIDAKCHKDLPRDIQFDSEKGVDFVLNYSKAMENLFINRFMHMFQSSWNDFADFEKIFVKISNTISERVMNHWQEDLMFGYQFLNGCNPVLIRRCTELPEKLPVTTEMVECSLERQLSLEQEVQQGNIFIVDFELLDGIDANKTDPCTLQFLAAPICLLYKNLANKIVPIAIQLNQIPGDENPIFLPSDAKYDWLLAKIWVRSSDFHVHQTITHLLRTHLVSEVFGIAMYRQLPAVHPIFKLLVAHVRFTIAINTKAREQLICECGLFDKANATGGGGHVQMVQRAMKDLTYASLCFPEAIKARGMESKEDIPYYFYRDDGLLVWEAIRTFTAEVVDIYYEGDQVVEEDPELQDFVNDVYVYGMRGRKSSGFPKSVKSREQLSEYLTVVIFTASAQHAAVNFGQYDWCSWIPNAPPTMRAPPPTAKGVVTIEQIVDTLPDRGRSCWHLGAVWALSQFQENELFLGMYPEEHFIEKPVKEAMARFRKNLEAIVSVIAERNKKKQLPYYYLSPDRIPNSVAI
Assay Overview: Fluorescence Intensity 5-LOX Enzyme Assay
Cond: crude lysate of recombinant human 5-LOX; highest inhibitor concentration tested typically 25 μM
Entries annotated with measured pIC50
Note: pIC50 values are expressed as the negative base-10 logarithm of concentration in M.

Reference set (3 entries):
CNC(=O)C1(c2cccc(Sc3ccc(-c4ccnn4C)cc3)c2Cl)CCOCC1 [Example 55]
6.45
Cn1nccc1-c1ccc(Sc2cccc(C3(C(N)=O)CCOCC3)c2)cc1Cl [Example 1]
7.05
CNC(=O)C1(c2cccc(Sc3ccc(-c4ccnn4C)cc3)c2)CCOCC1 [Example 10]
6.54

Query: Entry under review: Cn1nccc1-c1ccc(Sc2cc(F)cc(C3(C(N)=O)CCOCC3)c2)cc1 [Example 15] . Reported pIC50?
Result: 6.58

Query: Any idea what pIC50 was measured for CCc1cn[nH]c1-c1ccc(Sc2cccc(C3(C(N)=O)CCOCC3)c2)cc1 [Example 59] ?
Result: 6.09

Query: Give its pIC50 value. Item: C[C@H]1C[C@@](C#N)(c2cccc(Sc3ccc(-c4ccnn4C)c(F)c3)c2F)CCO1 [31(1)]
Result: 7.67

---

Test system: human whole blood (leukotriene and prostaglandin levels)
Assay Overview: Eicosanoid production from human whole blood
Assay type: cell-based
Cond: human whole blood stimulated with calcium ionophore A23187 and arachidonic acid; ELISA
Procedure: Human whole blood is collected in 10 ml heparin tubes (Vacutainer, Becton Dickenson). Collected blood is pooled and 80 μL is dispensed into each well of 384 well polypropylene plates. A PlateMate is used to add 2 μL of compound solution in DMSO to the 80 μL of blood in the polypropylene plates. The plate, with blood and compound added, is incubated at room temperature for 10 minutes. […]
Quantity Name: pIC50
The meaning of pIC50 here: minus log10 of the concentration in molar units.

Query: I'd like to know its pIC50. The compound in question is C[C@H]1C[C@@](C(N)=O)(c2cc(F)cc(Sc3ccc(-c4ccnn4C)cc3)c2)CCO1 [Example 27]
Result: 6.86

Query: // lookup pIC50 for Cn1nccc1C(=O)c1ccc(Sc2cccc(C3(C(N)=O)CCOCC3)c2)cc1 [Example 34]
Result: 6.26

Query: // query pIC50 value for entry Cn1nccc1C(=O)c1ccc(Sc2cccc(C3(C(N)=O)CCOCC3)c2)cn1 [Example 69]
Result: 5.47

Query: Need pIC50, item Cn1nccc1C(=O)c1ccc(Sc2cccc(C3(C#N)CCOCC3)c2)cc1 [Example 62]
Result: 5.83

Query: Quick one: pIC50 of Cn1ncc(Cl)c1-c1ccc(Sc2cccc(C3(C(N)=O)CCOCC3)c2)cc1F [Example 56] ?
Result: 6.33

Query: Recorded pIC50 for CNC(=O)C1(c2cccc(Sc3ccc(C(=O)c4ccnn4C)cc3)c2)CCOCC1 [Example 72] , please?
Result: 5.20

Query: Quick one: pIC50 of Cn1nccc1-c1ccc(Sc2cccc(C3(C(N)=O)CCOCC3)c2)cc1C#N [Example 2] ?
Result: 6.71

Query: What value of pIC50 has been reported for the following compound? Cn1nccc1-c1ccc(Sc2cc(F)cc(C3(C(N)=O)CCOCC3)c2)cc1 [Example 15]
Result: 6.44

---

Measured pIC50, listed per entry for reference.
System: human whole blood (leukotriene and prostaglandin levels)
Assay Overview: Eicosanoid production from human whole blood
Assay type: cell-based
Cond: human whole blood stimulated with calcium ionophore A23187 and arachidonic acid; ELISA
Entry type: numeric. Quantity: pIC50, the -log10 of concentration in molar units.

Some compounds with known pIC50 results, for comparison:
Cn1ncc(Br)c1-c1ccc(Sc2cccc(C3(C(N)=O)CCOCC3)c2)cc1 [Example 76]
6.14
Cn1nccc1Oc1ncc(Sc2cccc(C3(C(N)=O)CCOCC3)c2)cc1Cl [Example 41]
6.39
CCc1cn[nH]c1-c1ccc(Sc2cccc(C3(C(N)=O)CCOCC3)c2)cc1 [Example 59]
6.05

Now look at this one.
Query: What does the data say about its pIC50? Entry: Cn1nccc1-c1ccc(Sc2c(F)ccc(C3(C(N)=O)CCOCC3)c2F)cc1 [Example 20]
Result: 6.35

---

Measured inhibition at 3 mg/kg of individual entries
Test system: eicosanoid production in the rat air pouch
Assay Overview: Carrageenan-induced eicosanoid production in the rat air pouch
Assay type: in vivo
Cond: po, male Lewis rats, 3 mpk by gavage 1 hour prior to carrageenan
Unit % implied. Number only.

Answered examples (3):
Cn1nccc1-c1ccc(Sc2c(F)ccc(C3(C(N)=O)CCOCC3)c2F)cc1
91
Cc1nccn1-c1ccc(Sc2cccc(C3(C(N)=O)CCOCC3)c2)cc1 [(d), reference compound]
73.1
C[C@H]1C[C@@](C(N)=O)(c2cc(F)cc(Sc3ccc(-c4ccnn4C)cc3)c2)CCO1
100

# evaluate next
Query: Which value of inhibition at 3 mg/kg has been reported for Cn1ncc(Cl)c1-c1ccc(Sc2cccc(C3(C(N)=O)CCOCC3)c2)cc1F in the records?
Result: 62

---

System: human whole blood (leukotriene and prostaglandin levels)
Assay Overview: Eicosanoid production from human whole blood
Format: cell-based
Cond: human whole blood stimulated with calcium ionophore A23187 and arachidonic acid; ELISA
Quantity Name: IC50
Don't forget the unit after the value.

Solved cases below.
C[C@H]1C[C@@](C#N)(c2ccc(F)c(Sc3ccc(-c4ccnn4C)cc3)c2)CCO1 [Example 24]
150 nM
Cn1nccc1C(=O)c1cc(F)c(Sc2cccc(C3(C(N)=O)CCOCC3)c2)cc1F [Example 63]
1260 nM
Cc1cc(Sc2cccc(C3(C(N)=O)CCOCC3)c2)ccc1-c1ccnn1C [Example 14]
447 nM
C[C@H]1C[C@@](C#N)(c2cccc([S+]([O-])c3ccc(-c4ccnn4C)cc3)c2F)CCO1 (stereo partly shown) [Example 54]
1160 nM

Query: Which IC50 value is on record for C[C@H]1C[C@@](C#N)(c2cccc(Sc3ccc(C(=O)c4ccnn4C)cc3)c2F)CCO1 [Example 53] ?
Result: 350 nM

Query: # lookup: IC50 of COc1ccc(C2(C#N)CCOCC2)cc1Sc1ccc(-c2ccnn2C)cc1 [Example 43]
Result: 913 nM

Query: Reported IC50 for COc1ccc(C2(C(N)=O)CCOCC2)cc1Sc1ccc(-c2ccnn2C)cc1 [Example 44] : what is it?
Result: 866 nM

Query: Looking for the measured IC50 of C[C@H]1C[C@@](C#N)(c2cccc(Sc3ccc(-c4ccnn4C)cc3F)c2F)CCO1 [Example 25] , can you help?
Result: 83.6 nM

Query: Any idea what IC50 was measured for C[C@H]1C[C@@](C#N)(c2cc(F)cc(Sc3ccc(-c4ccnn4C)cc3)c2)CCO1 [27(2)] ?
Result: 123 nM

Query: So what's the measured IC50 for this one? C[C@@H]1C[C@](C#N)(c2cccc(Sc3ccc(-c4ccnn4C)cc3)c2)CCO1 [Example 82]
Result: 530 nM

Query: Please look up its IC50: C[C@H]1C[C@@](C#N)(c2cccc(Sc3ccc(-c4ccnn4C)c(F)c3)c2)CCO1 [30(2)]
Result: 55.7 nM

Query: Given the entry CCn1nccc1-c1ccc(Sc2cccc(C3(C(N)=O)CCOCC3)c2)cc1 [Example 8] , report its measured IC50.
Result: 253 nM

Query: Need IC50, item Cn1nccc1-c1ccc(Sc2cccc(C3(C#N)CCOCC3)c2)cc1 [Example 49]
Result: 999 nM

Query: Record request: IC50 value, item C[C@H]1C[C@@](C(N)=O)(c2cccc(Sc3cnc(Oc4ccnn4C)c(Cl)c3)c2F)CCO1 [Example 52]
Result: 272 nM

Query: Quick one: IC50 of Cn1nccc1-c1ccc(Sc2cccc(C3(C#N)CCOCC3)c2)cc1F [Example 46] ?
Result: 539 nM

---

The reader will find reported log10(IC50) values listed item by item below.
Assay System: recombinant human 5-LOX (Homo sapiens)
Assay Overview: Fluorescence Intensity 5-LOX Enzyme Assay
Cond: crude lysate of recombinant human 5-LOX; highest inhibitor concentration tested typically 25 μM
Give log10 of IC50, with IC50 taken in nM.

Cn1nccc1C(=O)c1ccc(Sc2cccc(C3(C(N)=O)CCOCC3)c2)c(C#N)c1 [Example 85]
3.44

Query: Item under review: Cn1nccc1-c1ncc(Sc2cccc(C3(C(N)=O)CCOCC3)c2)cc1Cl [Example 11] . Reported log10(IC50)?
Result: 2.59

Query: Please look up its log10(IC50): C[C@H]1C[C@](C(N)=O)(c2ccc(F)c(Sc3ccc(-c4ccnn4C)cc3)c2)CCO1 [Example 77]
Result: 3.80

Query: Given the compound COc1cc(Sc2cccc(C3(C(N)=O)CCOCC3)c2)ccc1C(=O)c1ccnn1C [Example 71] , what is its reported log10(IC50)?
Result: 2.63

Query: Recorded log10(IC50) of NC(=O)C1(c2cccc(Sc3ccc(-c4ccnn4CC4CCCC4)cc3)c2)CCOCC1 [Example 7] , please.
Result: 1.59

Query: // log10(IC50) lookup, key: C[C@H]1C[C@@](C(N)=O)(c2cccc(Sc3cnc(Oc4ccnn4C)c(Cl)c3)c2F)CCO1 [Example 52]
Result: 1.32

Query: # input compound: Cc1nccn1-c1ccc(Sc2cccc(C3(C(N)=O)CCOCC3)c2)cc1 [(d), reference compound] ; wanted: its log10(IC50)
Result: 2.94

Query: Entry NC(=O)C1(c2cccc(Sc3ccc(-c4ccnn4C4CCCC4)cc3)c2)CCOCC1 [Example 3] : reported log10(IC50) = ?
Result: 2.01
